Listed below: pIC50 values for each entry.
Test target: UniProt:P00918
The scale used: pIC50 is minus the common logarithm of the concentration in molar units.

Sample answers from the record:
| Molecule | Test target | Value measured |
| --- | --- | --- |
| NS(=O)(=O)c1nnc(NC(=O)c2cccc(NC(=O)CCC(=O)N[C@@H]3O[C@H](CO)[C@@H](O)[C@H](O)[C@H]3O)c2)s1 [Compound 14j] | UniProt:P00918 | 6.58 |
| Cc1cc(C(=O)Nc2nnc(S(N)(=O)=O)s2)ccc1NC(=O)CCC(=O)N[C@@H]1O[C@H](CO)[C@@H](O)[C@H](O)[C@H]1O [Compound 14o] | UniProt:P00918 | 6.57 |

Next up:
Query NS(=O)(=O)c1nnc(NC(=O)c2ccc(NC(=O)CCC(=O)N[C@@H]3O[C@H](CO)[C@@H](O)[C@H](O)[C@H]3O)c([N+](=O)[O-])c2)s1 [Compound 14n] on UniProt:P00918; pIC50 returned: 5.85
